System: Staphylococcus aureus
test.method.notes: Antibacterial activity against methicillin-resistant Staphylococcus aureus ATCC 33591 after 24 hrs
Assay type: functional
experimental.context: ATCC 33591, 24 h
Positions of bridges follow the written chain, without caps; N, C: chain ends. Non-standard residues stand in square brackets, D forms with d. Residues, ends and D or L forms follow the SMILES beside them. dNMeF = CN[C@H](Cc1ccccc1)C(=O)O
readout: MIC (µg/mL)
Answers are plain numbers, in µg/mL.

Examples with answers:
CC[C@@H](C)[C@@H](NC(=O)[C@@H](CCCNC(=N)N)NC(=O)[C@H](CO)NC(=O)[C@@H](NC(=O)[C@@H](Cc1ccccc1)NC)[C@@H](C)CC)C(=O)N[C@H](C(=O)N[C@@H](CO)C(=O)N[C@H]1C(=O)N[C@@H](C)C(=O)N[C@@H]([C@@H](C)CC)C(=O)N[C@@H]([C@@H](C)CC)C(=O)O[C@H]1C)[C@@H](C)CC ... 0.125
CC[C@@H](C)[C@@H](NC(=O)[C@@H](CCC(N)=O)NC(=O)[C@H](CO)NC(=O)[C@@H](NC(=O)[C@@H](Cc1ccccc1)NC)[C@@H](C)CC)C(=O)N[C@H](C(=O)N[C@@H](CO)C(=O)N[C@H]1C(=O)N[C@@H](CCCNC(=N)N)C(=O)N[C@@H](CC(C)C)C(=O)N[C@@H]([C@@H](C)CC)C(=O)O[C@H]1C)[C@@H](C)CC (H-[dNMeF]IS[dQ][dI]IS[dT]RLI; ester 8-C) ... 0.125

// moving on: another record for MIC
Q: Let me know recorded MIC for CC[C@@H](C)[C@@H](NC(=O)[C@@H](CCC(N)=O)NC(=O)[C@H](CCCNC(=N)N)NC(=O)[C@@H](NC(=O)[C@@H](Cc1ccccc1)NC)[C@@H](C)CC)C(=O)N[C@H](C(=O)N[C@@H](CO)C(=O)N[C@H]1C(=O)N[C@@H](C)C(=O)N[C@@H]([C@@H](C)CC)C(=O)N[C@@H]([C@@H](C)CC)C(=O)O[C@H]1C)[C@@H](C)CC , thanks.
Ans: 0.25
